System Name: Human PPAR-γ2 (Homo sapiens, UniProt P37231)
Construct: inserting the PPARγ2 cDNA coding region into pcDNA3.1+ vector; expressed in transfected cells; host or cells: HEK293 cells (ATCC)
Sequence (P37231 whole entry): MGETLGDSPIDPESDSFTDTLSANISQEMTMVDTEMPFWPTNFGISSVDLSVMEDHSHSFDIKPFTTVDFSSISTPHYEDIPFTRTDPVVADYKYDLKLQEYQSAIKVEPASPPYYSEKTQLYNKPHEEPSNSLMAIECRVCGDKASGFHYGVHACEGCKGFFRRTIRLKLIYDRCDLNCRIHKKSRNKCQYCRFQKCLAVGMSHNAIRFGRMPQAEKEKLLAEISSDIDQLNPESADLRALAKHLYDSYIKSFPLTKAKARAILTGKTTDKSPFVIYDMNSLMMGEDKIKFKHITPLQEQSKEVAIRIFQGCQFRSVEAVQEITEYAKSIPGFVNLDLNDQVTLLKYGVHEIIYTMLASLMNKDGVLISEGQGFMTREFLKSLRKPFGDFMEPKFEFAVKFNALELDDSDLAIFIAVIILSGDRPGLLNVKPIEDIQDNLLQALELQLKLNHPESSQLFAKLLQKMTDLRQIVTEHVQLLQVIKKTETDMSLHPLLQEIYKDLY
Assay Comment: PPAR-gamma mediated transactivation of PPRE-luciferase reporter
Assay type: cell-based
Stated Conditions: in vitro transactivation assay
Procedure: Human PPAR-γ2 expression vector was constructed by inserting PPAR-γ2 encoding region into pcDNA3.1+ vector (Invitrogen, Carlsbad, Calif.). […] Assays for Firefly luciferase activity and Renilla luciferase activity followed the standard protocol of Dual-luciferase Reporter® Assay System (Promega, Madison, Wis.). […] Final reporter activity was calculated as the ratio of Firefly luciferase activity over by Renilla luciferase activity. […]
Property Label: PPAR-gamma agonist potency in words

compound="COC(=O)C(Cc1cc(OC)cc(OC)c1)c1ccc(Oc2ccc(C=C3SC(=O)NC3=O)cc2)cc1 (stereo not shown) [Compound 17]" result="essentially inactive"
compound="COC(=O)C(=Cc1cc(OC)cc(OC)c1)c1ccc(Oc2ccc(C=C3SC(=O)NC3=O)cc2)cc1 [Compound 10]" result="reasonable potency"
compound="COc1cc(C=C(C(=O)O)c2ccc(Oc3ccc(CC4SC(=O)NC4=O)cc3)cc2)cc(OC)c1 (stereo not shown) [Compound 14]" result="reasonable potency"
compound="COC(=O)C(Cc1cc(OC)cc(OC)c1)c1ccc(Oc2ccc(CC3SC(=O)NC3=O)cc2)cc1 (stereo not shown) [Compound 18]" result="essentially inactive"

* * *

System Name: Human PPAR-γ2 (Homo sapiens)
Construct: inserting the PPARγ2 cDNA coding region into pcDNA3.1+ vector; expressed in transfected cells; host or cells: HEK293 cells (ATCC)
Assay Comment: PPAR-gamma mediated transactivation of PPRE-luciferase reporter
Type: cell-based
Stated Conditions: cells transfected with human PPAR-gamma2, 24 hours, non-linear regression; read-out: EC50, induction of PPAR-γ mediated luciferase activity
Method: Human PPAR-γ2 expression vector was constructed by inserting PPAR-γ2 encoding region into pcDNA3.1+ vector (Invitrogen, Carlsbad, Calif.). […] Assays for Firefly luciferase activity and Renilla luciferase activity followed the standard protocol of Dual-luciferase Reporter® Assay System (Promega, Madison, Wis.). […] Final reporter activity was calculated as the ratio of Firefly luciferase activity over by Renilla luciferase activity. […]
pEC50: −log10 of the molar value.
Property Label: pEC50

compound=COC(=O)C(=Cc1cc(OC)cc(OC)c1)c1ccc(Oc2ccc(C=C3SC(=O)NC3=O)cc2)cc1 system_name="Human PPAR-γ2 (Homo sapiens)" measured_number=5.94
compound="COc1cc(C=C(C(=O)O)c2ccc(Oc3ccc(CC4SC(=O)NC4=O)cc3)cc2)cc(OC)c1 (stereo not drawn)" system_name="Human PPAR-γ2 (Homo sapiens)" measured_number=6.16
compound="COC(=O)C(Cc1cc(OC)cc(OC)c1)c1ccc(Oc2ccc(CC3SC(=O)NC3=O)cc2)cc1 (stereo not drawn)" system_name="Human PPAR-γ2 (Homo sapiens)" measured_number=4.24
compound="COC(=O)/C(=C\\c1cc(OC)cc(OC)c1)c1ccc(Oc2ccc(CC3SC(=O)NC3=O)cc2)cc1 (stereo not drawn)" system_name="Human PPAR-γ2 (Homo sapiens)" measured_number=5.43
compound="COC(=O)C(Cc1cc(OC)cc(OC)c1)c1ccc(Oc2ccc(C=C3SC(=O)NC3=O)cc2)cc1 (stereo not drawn)" system_name="Human PPAR-γ2 (Homo sapiens)" measured_number=4.62
compound="COC(=O)C(=Cc1cc(OC)cc(OC)c1)c1ccc(Oc2ccc(CC3SC(=O)NC3=O)cc2)cc1 (stereo not drawn)" system_name="Human PPAR-γ2 (Homo sapiens)" measured_number=6.55
